So I've got a bunch of molecules here, and I need their Percent reduction of blood glucose (%) 24 hours after administration values.
Test system: db/db mice
Experiment: Study for glucose lowering effect in db/db mouse
Assay type: in vivo
Conditions: oral, 0.3 mg/kg, 24 hours, relative to control group, Table 3-2
Entry rule: numbers only, all in %.

[in] Looking for the measured Percent reduction of blood glucose (%) 24 hours after administration of "CCc1ccc(Cc2cc3c(cc2Cl)CO[C@]32O[C@H](CO)[C@@H](O)[C@H](O)[C@H]2O)cc1" , can you help?
[out] 32

[in] Looking for the measured Percent reduction of blood glucose (%) 24 hours after administration of "CCCc1ccc(Cc2cc3c(cc2Cl)CO[C@]32O[C@H](CO)[C@@H](O)[C@H](O)[C@H]2O)cc1" , can you help?
[out] 28

[in] Looking for the measured Percent reduction of blood glucose (%) 24 hours after administration of "OC[C@H]1O[C@]2(OCc3cc(Cl)c(Cc4ccc(CCF)cc4)cc32)[C@H](O)[C@@H](O)[C@@H]1O" , can you help?
[out] 27

[in] Looking for the measured Percent reduction of blood glucose (%) 24 hours after administration of "CC(C)c1ccc(Cc2cc3c(cc2Cl)CO[C@]32O[C@H](CO)[C@@H](O)[C@H](O)[C@H]2O)cc1" , can you help?
[out] 27

Value source: patent US20110275703A1
